These data points were gathered from patent US20100041597A1.

# TARGET_OR_TEST_SYSTEM: PKC-α (Homo sapiens, UniProt P17252)
# METHOD: Competitive binding assay using cell extracts (Western blot)
# Parameters: key: —: no detectable affinity; Low to very low affinity at 10X or 20X or both PRE concentrations in at least one cell line in the cell extract assay; Low affinity in purified isoform assay.; Moderate affinity at 10X or 20X or both PRE concentrations in at least one cell line in the cell extract assay.; High affinity at 10X or 20X or both PRE concentrations in at least one cell line in the cell extract assay; High affinity in purified isoform assay
# RUN_CONDITIONS: Cell extract; PRE at 10X, 20X antibody concentration; Table 20
TEST_READOUT: Affinity for PKC isoform α

- SUBSTANCE: "Ac-ISIGILQNADK-NH2 [PRE 7]"
  Affinity for PKC isoform α: "L"
- SUBSTANCE: "Ac-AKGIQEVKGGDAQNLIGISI-NH2 [PRE 3]"
  Affinity for PKC isoform α: "H"
- SUBSTANCE: "Ac-RDAQNLI-NH2 [PRE 13]"
  Affinity for PKC isoform α: "M/H"
- SUBSTANCE: "Ac-KDANQLIGISI-NH2 [PRE 6]"
  Affinity for PKC isoform α: "H/L"
- SUBSTANCE: "Ac-KDAQNLIGISI-NH2 [PRE 4, Ac-KDAQNLIGISI-NH2]"
  Affinity for PKC isoform α: "H"
- SUBSTANCE: "Ac-KDAQNLI-NH2 [PRE 12]"
  Affinity for PKC isoform α: "—"
- SUBSTANCE: "Ac-ISIGILNQADK-NH2 [PRE 10]"
  Affinity for PKC isoform α: "H/L"
- SUBSTANCE: "RRKKGGKDFVVKR [PRE 1]"
  Affinity for PKC isoform α: "H"
- SUBSTANCE: "Ac-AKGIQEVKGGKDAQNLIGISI-NH2 [PRE 5]"
  Affinity for PKC isoform α: "M"
- SUBSTANCE: "Ac-RDAQNLIGISI-NH2 [PRE 11]"
  Affinity for PKC isoform α: "H/L"

Please turn your attention to the following entry.
*Q* # query: Affinity for PKC isoform α | item ILEDKGGDAQNLIGISI [PRE 8] | system: PKC-α (Homo sapiens, UniProt P17252)
*A* M/L
